# Test system: SW480 colon cancer cells
# assay: Cell viability assay (CellTiter-Blue)
# Assay type: cell-based
# settings: Homo sapiens, SW480, 96 h; read-out: percent inhibition at 10 μM
# if value of inhibition at 10 µM reaches 10%, tag class 1; if it stays below, tag class 0

These solved cases illustrate the format of a correct answer.
Challenge: Please check the record O=C(Nc1cncc(-c2ccc3[nH]nc(-c4cc5c(-c6ccncc6)nccc5[nH]4)c3c2)c1)C1CCCC1 [Compound 134] and state if its inhibition at 10 µM is at or above 10%.
Response given: class 0

Challenge: Please check the record CN1CCN(c2nccc3[nH]c(-c4n[nH]c5ccc(-c6cncc(NC(=O)CC7CCNCC7)c6)cc45)cc23)CC1 [Compound 641] and state if its inhibition at 10 µM is at or above 10%.
Response given: class 1

Challenge: Please check the record Nc1cncc(-c2ccc3[nH]nc(-c4cc5c(-c6ccccc6F)nccc5[nH]4)c3c2)c1 [Compound 59] and state if its inhibition at 10 µM is at or above 10%.
Response given: class 1

Challenge: Please check the record CS(=O)(=O)NCc1cc(F)cc(-c2nccc3[nH]c(-c4n[nH]c5ccc(-c6cncnc6)cc45)cc23)c1 [Compound 503] and state if its inhibition at 10 µM is at or above 10%.
Response given: class 1

Challenge: Please check the record CS(=O)(=O)NCc1cc(F)cc(-c2nccc3[nH]c(-c4n[nH]c5ccc(-c6ccncc6)cc45)cc23)c1 [Compound 494] and state if its inhibition at 10 µM is at or above 10%.
Response given: class 0

Challenge: Please check the record CC(C)CC(=O)Nc1cncc(-c2ccc3[nH]nc(-c4cc5c(-c6ccncc6)nccc5[nH]4)c3c2)c1 [Compound 114] and state if its inhibition at 10 µM is at or above 10%.
Response given: class 0

---
Challenge: Please check the record CC(C)(C)CC(=O)Nc1cncc(-c2ccc3[nH]nc(-c4cc5c(-c6ccccc6F)nccc5[nH]4)c3c2)c1 [Compound 72] and state if its inhibition at 10 µM is at or above 10%.
Response given: class 0

Challenge: Please check the record CN1CCN(c2nccc3[nH]c(-c4n[nH]c5ccc(-c6cncnc6)cc45)cc23)CC1 [Compound 251] and state if its inhibition at 10 µM is at or above 10%.
Response given: class 1

Source: patent US10463651B2
